Data provenance is patent US20030068675.

# system_name: ZFP SBS#1221 (synthetic)
# Sequence (chain, as listed by the source): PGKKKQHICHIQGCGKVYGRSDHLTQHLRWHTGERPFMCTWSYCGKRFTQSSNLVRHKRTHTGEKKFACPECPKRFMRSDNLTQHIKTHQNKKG
# experiment: EMSA
# measurement_conditions: tags: MBP fusion
quantity_measured: Kd (nM)
# unit: nM | format: bare number

[ask] I have this binder here, AAGGAAAGG (dsDNA) DNA 1: AAGGAAAGG DNA 2: CCTTTCCTT , and I need its recorded Kd.
[reply] 1.4
